# key: entry, value: combination Emax
Test system: DOK (Oral Cavity Carcinoma)
Run description: combination Emax (second highest fraction inhibited in the dose matrix, 72 h); higher = more inhibition; extreme values may be limits of the assay
Attribute measured: combination Emax

INSERT INTO results (compound, recorded_measurement) VALUES
  ('Cc1c2c(nn1C)CSCc1cc(n(C)n1)CSc1cc(c3ccccc3c1)OCCCc1c(C(=O)O)n(C)c3c-2c(Cl)ccc13 [AZD5991] + Cc1cc2ncnn2cc1Nc1ncc2c(n1)n(C1CCOCC1)c(=O)n2C [AZD7648] (first compound max 1 µM, 7x7, partner max 10 µM)', 0.421),
  ('C=CCn1c(=O)c2cnc(Nc3ccc(N4CCN(C)CC4)cc3)nc2n1-c1cccc(C(C)(C)O)n1 [AZD1775] + C1CN(CCC1(C(=O)N[C@@H](CCO)C2=CC=C(C=C2)Cl)N)C3=NC=NC4=C3C=CN4 [Capivasertib] (first compound max 3 µM, partner max 3 µM)', 0.754),
  ('CN(CCO)CC[C@H](CSc1ccccc1)Nc1ccc(S(=O)(=O)NC(=O)c2ccc(N3CCC([C@@H](O)c4ccccc4-c4ccc(Cl)cc4)CC3)cc2)cc1S(=O)(=O)C(F)(F)F [AZD4320] + Nc1ccn([C@@H]2O[C@H](CO)[C@@H](O)C2(F)F)c(=O)n1 [Gemcitabine] (first compound max 1 µM, 7x7, partner max 0.3 µM)', 0.859),
  ('CC1(C)CCC(CN2CCN(c3ccc(C(=O)NS(=O)(=O)c4ccc(NCC5CCOCC5)c([N+](=O)[O-])c4)c(Oc4cnc5[nH]ccc5c4)c3)CC2)=C(c2ccc(Cl)cc2)C1 [Venetoclax] + CS(=O)(=O)CCNCc1ccc(-c2ccc3ncnc(Nc4ccc(OCc5cccc(F)c5)c(Cl)c4)c3c2)o1 [Lapatinib] (first compound max 1 µM, 7x7, partner max 10 µM)', 0.645);

* * *

# key: entry, value: Bliss excess
System: MSTO-211H (Mesothelioma)
Run description: Bliss excess, mean over the matrix (fraction); higher = more synergy
Attribute measured: Bliss excess

INSERT INTO measurements (compound, tgt, recorded_measurement) VALUES
  ('Cc1c2c(nn1C)CSCc1cc(n(C)n1)CSc1cc(c3ccccc3c1)OCCCc1c(C(=O)O)n(C)c3c-2c(Cl)ccc13 [AZD5991] + CS(=O)(=O)CCNCc1ccc(-c2ccc3ncnc(Nc4ccc(OCc5cccc(F)c5)c(Cl)c4)c3c2)o1 [Lapatinib] (first compound max 1 µM, 7x7, partner max 10 µM)', 'MSTO-211H (Mesothelioma)', 0.0121),
  ('CCN(CCO)CCCOc1ccc2c(Nc3cc(CC(=O)Nc4cccc(F)c4)[nH]n3)ncnc2c1 [AZD2811] + C=CCn1c(=O)c2cnc(Nc3ccc(N4CCN(C)CC4)cc3)nc2n1-c1cccc(C(C)(C)O)n1 [AZD1775] (first compound max 1 µM, partner max 1 µM)', 'MSTO-211H (Mesothelioma)', 0.0387),
  ('N#Cc1cnc(Nc2cc(NC[C@H]3CNCCO3)c(C(F)(F)F)cn2)cn1 [SRA737] + CCc1c2c(nc3ccc(O)cc13)-c1cc3c(c(=O)n1C2)COC(=O)[C@]3(O)CC [SN-38] (first compound max 10 µM, 7x7, partner max 0.3 µM)', 'MSTO-211H (Mesothelioma)', -0.024),
  ('COc1cccc(OCCCN)c1-c1cc(Nc2cnc(C#N)cn2)n[nH]1 [Prexasertib] + Cc1cc2ncnn2cc1Nc1ncc2c(n1)n(C1CCOCC1)c(=O)n2C [AZD7648] (first compound max 1 µM, 7x7, partner max 10 µM)', 'MSTO-211H (Mesothelioma)', -0.0059),
  ('CC1(C)CCC(CN2CCN(c3ccc(C(=O)NS(=O)(=O)c4ccc(NCC5CCOCC5)c([N+](=O)[O-])c4)c(Oc4cnc5[nH]ccc5c4)c3)CC2)=C(c2ccc(Cl)cc2)C1 [Venetoclax] + CN(C)CCCOc1ccc(-c2ccc3ncc4c(c3c2)n(C2CCOCC2)c(=O)n4C)cn1 [AZD0156] (first compound max 1 µM, 7x7, partner max 1 µM)', 'MSTO-211H (Mesothelioma)', -0.0243),
  ('CS(=O)(=O)CCNCc1ccc(-c2ccc3ncnc(Nc4ccc(OCc5cccc(F)c5)c(Cl)c4)c3c2)o1 [Lapatinib] + C[C@@H](Oc1cc(-c2cnn(C3CCNCC3)c2)cnc1N)c1c(Cl)ccc(F)c1Cl [Crizotinib] (first compound max 10 µM, 7x7, partner max 10 µM)', 'MSTO-211H (Mesothelioma)', -0.0667);

* * *

# key: entry, value: Bliss excess
System: TYK-nu (Ovarian Carcinoma)
Run description: Bliss excess, mean over the matrix (fraction); higher = more synergy
Attribute measured: Bliss excess

INSERT INTO measurements (compound, recorded_measurement) VALUES
  ('C[C@@H](c1ccc2nccn2c1)n1nnc2ncc(-c3cnn(C)c3)nc21 [Savolitinib] + Cc1c2c(nn1C)CSCc1cc(n(C)n1)CSc1cc(c3ccccc3c1)OCCCc1c(C(=O)O)n(C)c3c-2c(Cl)ccc13 [AZD5991] (first compound max 1 µM, 7x7, partner max 1 µM)', -0.0393),
  ('CN(CCO)CC[C@H](CSc1ccccc1)Nc1ccc(S(=O)(=O)NC(=O)c2ccc(N3CCC([C@@H](O)c4ccccc4-c4ccc(Cl)cc4)CC3)cc2)cc1S(=O)(=O)C(F)(F)F [AZD4320] + C=CCn1c(=O)c2cnc(Nc3ccc(N4CCN(C)CC4)cc3)nc2n1-c1cccc(C(C)(C)O)n1 [AZD1775] (first compound max 1 µM, partner max 1 µM)', -0.0845),
  ('CCc1c2c(nc3ccc(O)cc13)-c1cc3c(c(=O)n1C2)COC(=O)[C@]3(O)CC [SN-38] + O=C(c1cc(Cc2n[nH]c(=O)c3ccccc23)ccc1F)N1CCN(C(=O)C2CC2)CC1 [Olaparib] (first compound max 0.3 µM, 7x7, partner max 10 µM)', -0.0067),
  ('CC1(C)CCC(CN2CCN(c3ccc(C(=O)NS(=O)(=O)c4ccc(NCC5CCOCC5)c([N+](=O)[O-])c4)c(Oc4cnc5[nH]ccc5c4)c3)CC2)=C(c2ccc(Cl)cc2)C1 [Venetoclax] + C[C@@H]1COCCN1C2=NC(=NC(=C2)C3(CC3)[S@](=N)(=O)C)C4=C5C=CNC5=NC=C4 [AZD6738] (first compound max 1 µM, 7x7, partner max 10 µM)', -0.0315),
  ('C[C@@H](c1ccc2nccn2c1)n1nnc2ncc(-c3cnn(C)c3)nc21 [Savolitinib] + CC1(C)CCC(CN2CCN(c3ccc(C(=O)NS(=O)(=O)c4ccc(NCC5CCOCC5)c([N+](=O)[O-])c4)c(Oc4cnc5[nH]ccc5c4)c3)CC2)=C(c2ccc(Cl)cc2)C1 [Venetoclax] (first compound max 1 µM, 7x7, partner max 1 µM)', -0.0478),
  ('Cc1cc2ncnn2cc1Nc1ncc2c(n1)n(C1CCOCC1)c(=O)n2C [AZD7648] + CN(C)CCCOc1ccc(-c2ccc3ncc4c(c3c2)n(C2CCOCC2)c(=O)n4C)cn1 [AZD0156] (first compound max 10 µM, 7x7, partner max 1 µM)', -0.0465),
  ('NC1(C(=O)N[C@@H](CCO)c2ccc(Cl)cc2)CCN(c2ncnc3[nH]ccc23)CC1 [Capivasertib] + COc1nnc2ccc(N3CCC(c4ccc(OCCN5CCN(C)C(=O)[C@H]5C)cc4)CC3)nn12 [AZD5153] (first compound max 10 µM, 7x7, partner max 1 µM)', 0.0114);

* * *

Tested on: MCF7 (Breast Carcinoma)
Run description: Bliss excess, mean over the matrix (fraction); higher = more synergy
So basically: Bliss excess at -0.002 or higher? That is Y. Lower than -0.002? That is N.

INSERT INTO measurements (molecule, discrete_label) VALUES
  ('NC1(C(=O)N[C@@H](CCO)c2ccc(Cl)cc2)CCN(c2ncnc3[nH]ccc23)CC1 [Capivasertib] + CC(=O)c1c(C)c2cnc(Nc3ccc(N4CCNCC4)cn3)nc2n(C2CCCC2)c1=O [Palbociclib] (first compound max 10 µM, 7x7, partner max 10 µM)', 'Y'),
  ('Cc1cc2ncnn2cc1Nc1ncc2c(n1)n(C1CCOCC1)c(=O)n2C [AZD7648] + CCN(CCO)CCCOc1ccc2c(Nc3cc(CC(=O)Nc4cccc(F)c4)[nH]n3)ncnc2c1 [AZD2811] (first compound max 10 µM, 7x7, partner max 1 µM)', 'N'),
  ('CN(CCO)CC[C@H](CSc1ccccc1)Nc1ccc(S(=O)(=O)NC(=O)c2ccc(N3CCC([C@@H](O)c4ccccc4-c4ccc(Cl)cc4)CC3)cc2)cc1S(=O)(=O)C(F)(F)F [AZD4320] + C=CCn1c(=O)c2cnc(Nc3ccc(N4CCN(C)CC4)cc3)nc2n1-c1cccc(C(C)(C)O)n1 [AZD1775] (first compound max 1 µM, partner max 1 µM)', 'Y'),
  ('CS(=O)(=O)CCNCc1ccc(-c2ccc3ncnc(Nc4ccc(OCc5cccc(F)c5)c(Cl)c4)c3c2)o1 [Lapatinib] + NC1(c2ccc(-c3nc4ccn5c(=O)[nH]nc5c4cc3-c3ccccc3)cc2)CCC1 [MK-2206] (first compound max 10 µM, 7x7, partner max 10 µM)', 'N'),
  ('CC1(C)CCC(CN2CCN(c3ccc(C(=O)NS(=O)(=O)c4ccc(NCC5CCOCC5)c([N+](=O)[O-])c4)c(Oc4cnc5[nH]ccc5c4)c3)CC2)=C(c2ccc(Cl)cc2)C1 [Venetoclax] + C1CN(CCC1(C(=O)N[C@@H](CCO)C2=CC=C(C=C2)Cl)N)C3=NC=NC4=C3C=CN4 [Capivasertib] (first compound max 1 µM, 7x7, partner max 3 µM)', 'Y'),
  ('Cc1c2c(nn1C)CSCc1cc(n(C)n1)CSc1cc(c3ccccc3c1)OCCCc1c(C(=O)O)n(C)c3c-2c(Cl)ccc13 [AZD5991] + Cn1cnc2c(F)c(Nc3ccc(Br)cc3Cl)c(C(=O)NOCCO)cc21 [Selumetinib] (first compound max 1 µM, 7x7, partner max 3 µM)', 'N'),
  ('CCN(CCO)CCCOc1ccc2c(Nc3cc(CC(=O)Nc4cccc(F)c4)[nH]n3)ncnc2c1 [AZD2811] + O=C(c1cc(Cc2n[nH]c(=O)c3ccccc23)ccc1F)N1CCN(C(=O)C2CC2)CC1 [Olaparib] (first compound max 1 µM, 7x7, partner max 10 µM)', 'N');
